Origin of measurements: the supplement of paper PMC10567573

B1: INTS3 (parent)
chain: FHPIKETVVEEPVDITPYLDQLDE

Variants of: B1
Assay: protein stability index of a GFP-peptide fusion (GPS, HEK-293T) (PSI 1-6); higher = more stable;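 note: lentivirally expressed fusions sorted by FACS into six bins by GFP to DsRed ratio, PSI derived from sequencing read proportions per bin multiplied by bin number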
Conditions: c terminus: a fixed tail appended
readout.kind: protein stability index
# answer = number (no unit)

Memo: "V13E" , reported protein stability index: 3.34

Just so you know, measured protein stability index for "Q21F" came out at 2.55

Notebook: "E24R" , protein stability index read as 2.33

Item: "D14K" | protein stability index: 3.13

Quick note, protein stability index for "D14M" landed at 2.14

Record "E11Y" . Reported protein stability index: 2.51

Notebook: "P3C" , protein stability index read as 3.23

Noted for "E6K" : its protein stability index reads 2.34

get_value(item= "T7A" , readout=protein stability index) returns 3.73

Noted for "D23T" : its protein stability index reads 3.08

For this variant ( "E6W" ), measured protein stability index is 1.91
